test system: MDA-N; assay: NCI tumour cell line growth inhibition, 48 h
Where a SMILES comes first, the peptide text is derived from it. [ ]: non-standard residue; d: D form. The star is where a group is joined. Phe(4-NO2) = N[CH](Cc1ccc([N+](=O)[O-])cc1)C(=O)O; Cbz = O=C(OCc1ccccc1)*
Please respond with reported TGI for every item in the list.

Record summary for `CCC(=O)NC(NNS(=O)(=O)c1ccc(C)cc1)(C(F)(F)F)C(F)(F)F` : reported TGI = 54.3 µM

Record summary for `CC(C)(C)c1cc(C(C)(C)C)c(SSc2c(C(C)(C)C)cc(C(C)(C)C)c(O)c2O)c(O)c1O` : reported TGI = 23.9 µM

Record summary for `N#Cc1ccc(N=NN2CCCC2)cc1` : reported TGI = > 100 µM

Record summary for O=C1Nc2ccccc2C1(O)Cc1ccccn1 (configuration not stated) : reported TGI = > 100 µM

Record summary for `C=CCNC(=S)NC=C(C(N)=O)C(N)=O` : reported TGI = > 100 µM

Record summary for CCOC(=O)CCC(NC(=O)OCc1ccccc1)C(=O)NC(CCC(=O)OCC)C(=O)NC(CCC(=O)OCC)C(=O)NC(CCC(=O)OCC)C(=O)NC(CCC(=O)OCC)C(=O)NC(Cc1ccc([N+](=O)[O-])cc1)C(=O)NC(CCC(=O)OCC)C(=O)NC(CCC(=O)OCC)C(=O)NC(CCC(=O)OCC)C(=O)NC(CCC(=O)OCC)C(=O)NC(CCC(=O)OCC)C(=O)OCC (configuration not stated) (Cbz-E(OEt)E(OEt)E(OEt)E(OEt)E(OEt)[Phe(4-NO2)]E(OEt)E(OEt)E(OEt)E(OEt)E(OEt)-OEt; configuration not given here) : reported TGI = > 50 µM

Record summary for `Cc1cc(NS(=O)(=O)c2ccc(NC(=O)c3ccc4nc5ccccc5c(Nc5ccc(S(N)(=O)=O)cc5)c4c3)cc2)no1` : reported TGI = 66 µM
